target or system: Prothrombin (Homo sapiens)
protocol details: Inhibition of human thrombin
quantity measured: Ki (nM)
Write the value in nM as a bare number.

Some solved cases for reference:
compound	observed result
N=C(N)NCCC[C@H]1NC(=O)[C@H]2CCCN2C(=O)[C@H](NC=O)CNC(=O)/C=C\[C@@H](Cc2ccc(O)cc2)NC(=O)[C@H](Cc2ccccc2)NC(=O)C1=O [MACROCYCLIC TRIPEPTIDE MOTIF]	4.1
N=C(N)NCCC[C@H]1NC(=O)[C@H]2CCCN2C(=O)[C@H](CCc2ccccc2)NC(=O)CCCCCCCNC(=O)C1=O (single isomer, unassigned)	20

*Q* Annotate the compound N=C(N)NCCC[C@H]1NC(=O)[C@H]2CCCN2C(=O)[C@H](Cc2ccccc2)NC(=O)CCCCCCCCCNC(=O)C1=O (single isomer, unassigned) with its measured Ki.
*A* 9.9

----------
Reported pKi is given for each of the following compounds.
target or system: Serine protease 1 (Bos taurus, UniProt P00760)
Sequence (P00760 whole entry): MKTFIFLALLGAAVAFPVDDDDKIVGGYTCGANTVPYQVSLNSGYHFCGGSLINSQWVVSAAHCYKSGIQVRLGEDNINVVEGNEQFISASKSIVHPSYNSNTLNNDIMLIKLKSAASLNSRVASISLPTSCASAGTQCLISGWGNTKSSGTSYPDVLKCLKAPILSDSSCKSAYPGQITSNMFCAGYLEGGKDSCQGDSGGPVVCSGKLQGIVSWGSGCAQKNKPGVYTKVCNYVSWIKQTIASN
Schema: pKi number; meaning minus log10 of the concentration expressed in molar units.

Past entries and their recorded results:
compound	quantity measured	observed result
N=C(N)NCCC[C@@H]1NC(=O)[C@@H]2CCCN2C(=O)[C@@H](Cc2ccccc2)NC(=O)CCCCCCCCCNC(=O)C1=O (single isomer, unassigned)	pKi	8.68
COC1C[C@@H]2C(=O)N[C@H](CCCN=C(N)N)C(=O)C(=O)NCCCCCCCC(=O)N[C@@H](Cc3ccccc3)C(=O)N2C1 (stereo partly specified)	pKi	7.89
N=C(N)NCCC[C@@H]1NC(=O)[C@@H]2CCCN2C(=O)[C@@H](Cc2ccccc2)NC(=O)CCCCCNC(=O)[C@@H](CCc2ccccc2)NC(=O)C1=O (single isomer, unassigned)	pKi	8.28

*Q* Report value: pKi, system: Serine protease 1 (Bos taurus, UniProt P00760), compound: N=C(N)NCCC[C@@H]1NC(=O)[C@@H]2CCCN2C(=O)[C@@H](Cc2ccccc2)NC(=O)CCCCCCCNC(=O)C1=O (single isomer, unassigned)
*A* 8.00

*Q* Look up Serine protease 1 (Bos taurus, UniProt P00760) data: pKi of N=C(N)NCCC[C@@H]1NC(=O)[C@@H]2CCCN2C(=O)[C@@H](NC=O)CNC(=O)/C=C\[C@@H](Cc2ccc(O)cc2)NC(=O)[C@@H](Cc2ccccc2)NC(=O)C1=O [MACROCYCLIC TRIPEPTIDE MOTIF] , then report it.
*A* 9.00

*Q* Lab note: Serine protease 1 (Bos taurus, UniProt P00760) assay, enter pKi for N=C(N)NCCC[C@@H]1NC(=O)[C@@H]2CCCN2C(=O)[C@@H](CCc2ccccc2)NC(=O)CCCCCCCNC(=O)C1=O (single isomer, unassigned) here
*A* 7.85

----------
Collected pKi values appear next to each entry.
target or system: Prothrombin (Homo sapiens)
protocol details: Inhibition of human thrombin
Keep in mind that pKi stands for -log10 of concentration in molar terms.

compound	pKi
N=C(N)NCCC[C@H]1NC(=O)[C@H]2CCCN2C(=O)[C@H](Cc2ccccc2)NC(=O)CCCCCNC(=O)[C@H](CCc2ccccc2)NC(=O)C1=O (single isomer, unassigned)	8.51
COC1C[C@@H]2C(=O)N[C@H](CCCN=C(N)N)C(=O)C(=O)NCCCCCCCC(=O)N[C@@H](Cc3ccccc3)C(=O)N2C1 (stereo partly drawn)	6.80

*Q* Indicate its recorded pKi; the compound in question is N=C(N)NCCC[C@H]1NC(=O)[C@H]2CCCN2C(=O)[C@H](Cc2ccccc2)NC(=O)CCCCCNC(=O)C1=O (single isomer, unassigned)
*A* 6.33
